system: P3 promoter (RNAIII / delta-toxin expression); experiment: USA300-P3-Luc reporter screen for inhibition of RNAIII induction (P3 promoter activation by AIP); assay type: cell-based, Staphylococcus aureus; details: Staphylococcus aureus; 40 μM compound, 2 hours at 37° C., luminescence; relative to positive control (USA300 inhibitory AIP supernatant); read-out: % Inhibition
Structures can show the parent of a compound that is named as a salt.
MEASUREMENT KIND: inhibition at 40 µM (%)
Number in %, nothing else.

# annotated cases, reported inhibition at 40 µM shown
# MOLECULE, REPORTED RESULT
rows = [
    ("O=C1C(Cl)=C(Cl)C(=O)C(Cl)=C1Cl", 47.7),
    ("CC[C@H](c1ccc(O)cc1)[C@@H](CC)c1ccc(O)cc1", 99.9),
    ("COc1cc(C)c(Cc2cnc(N)nc2N)cc1OC", 53.2),
]

Ask: Assign inhibition at 40 µM to the following record: Oc1nc(-c2ccc(C(F)(F)F)cc2)nc2c1CSCC2
Reply: 53.4

Ask: Assign inhibition at 40 µM to the following record: Cc1ccsc1C(=CCCN1CCC[C@@H](C(=O)O)C1)c1sccc1C [CPD000469176_TIAGABINE HCl, TIAGABINE HCl]
Reply: 69.7

Ask: Assign inhibition at 40 µM to the following record: O=C(O)c1ccccc1Nc1cccc(OCc2ccc3ccccc3n2)c1
Reply: 98.7

Ask: Assign inhibition at 40 µM to the following record: CCCc1c(OCCCCc2nnn[nH]2)ccc(C(C)=O)c1O
Reply: 48.7

Ask: Assign inhibition at 40 µM to the following record: C/C=C(/C(=C/C)c1ccc(O)cc1)c1ccc(O)cc1
Reply: 90.8

Ask: Assign inhibition at 40 µM to the following record: C#C[C@]1(O)CC[C@H]2[C@@H]3CCC4=CC(=O)CC[C@@H]4[C@H]3CC[C@@]21C
Reply: 52.4

Ask: Assign inhibition at 40 µM to the following record: c1ccc2c(c1)sc1ccccc12
Reply: 50.7

Ask: Assign inhibition at 40 µM to the following record: NCCOB(c1ccccc1)c1ccccc1
Reply: 82.1

Ask: Assign inhibition at 40 µM to the following record: CCOc1cc(CC(=O)N[C@@H](CC(C)C)c2ccccc2N2CCCCC2)ccc1C(=O)O [CPD000466305_REPAGLINIDE, REPAGLINIDE]
Reply: 49

Ask: Assign inhibition at 40 µM to the following record: CC(=O)O[C@]1(C(C)=O)CC[C@H]2[C@@H]3C=C(C)C4=CC(=O)CC[C@]4(C)[C@H]3CC[C@@]21C [MEGESTROL ACETATE]
Reply: 46.5

Ask: Assign inhibition at 40 µM to the following record: CN1C[C@H](C(=O)N[C@]2(C)O[C@@]3(O)[C@@H]4CCCN4C(=O)[C@H](Cc4ccccc4)N3C2=O)C[C@@H]2c3cccc4[nH]cc(c34)C[C@H]21 [DIHYDROERGOTAMINE MESYLATE]
Reply: 52.2

Ask: Assign inhibition at 40 µM to the following record: Cc1cc(O)c2c(c1)C(=O)c1cccc(O)c1C2=O
Reply: 47.2

# credit: patent US12065485B2
